- TEST_SUMMARY: viability loss in pontine glioma line – cell-based, SU-DIPG-XIII, MIPE5.0, CellTiter-Glo, qHTS, dose response (AID 1347064);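 for AC50: cells exposed to compound for 48 hours before the viability read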
- ASSAY_CONDITIONS: CellTiter-Glo ATP luminescence
Records with an inconclusive call do not appear. Active and inactive are the calls of the source. No cut-off is given here; in the data, nearly all actives have AC50 up to about 23 µM.
Pick one: True for active, False for inactive

Here's what some known entries look like.
MOLECULE | ASSIGNED_LABEL
CCCS(=O)(=O)Nc1ccc(F)c(C(=O)c2c[nH]c3ncc(-c4ccc(Cl)cc4)cc23)c1F | False
O=C(CCCCCCNC(=O)c1cnc(N(c2ccccc2)c2ccccc2Cl)nc1)NO | True
O=C(c1cc(Cc2n[nH]c(=O)c3ccccc23)ccc1F)N1CCN(C(=O)C2CC2)CC1 | False
CS(=O)(=O)c1ccc([C@@H](CC2CCCC2)C(=O)Nc2nccs2)cc1 | False
COc1ccc(S(=O)(=O)N(CCO)c2ccccc2CN(C)C/C=C/c2ccc(Cl)cc2)cc1 | True

input: For "C=CC(=O)Nc1cccc(Oc2nc(Nc3ccc(N4CCN(C)CC4)cc3)ncc2Cl)c1" , which call appears in the assay record?
output: True

###

- TEST_SUMMARY: viability loss in pontine glioma line – cell-based, SU-DIPG-XXV, MIPE5.0, CellTiter-Glo, qHTS, dose response (AID 1347065);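 note: cells exposed to compound for 48 hours before ATP readout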
- ASSAY_CONDITIONS: CellTiter-Glo ATP luminescence
Results filed as inconclusive are left out. Active and inactive are the calls of the source. No cut-off is given here; in the data, nearly all actives have AC50 up to about 26 µM.
ASSAY_METRIC: AC50

Before answering, review these 10 worked examples.
MOLECULE | VAL
Nc1cc(C(F)(F)F)c(-c2nc(N3CCOCC3)nc(N3CCOCC3)n2)cn1 | 0.742 µM (active)
CC(C)[C@H](C(=O)Nc1ccc(C(=O)NO)cc1)c1ccccc1 | 1.32 µM (active)
NC[C@H]1O[C@H](O[C@@H]2[C@H](O)[C@@H](O[C@H]3O[C@H](CO)[C@@H](O)[C@H](N)[C@H]3O)[C@H](N)C[C@@H]2N)[C@H](O)[C@@H](O)[C@@H]1O | inactive
CNC(=O)c1ccc(N2C(=S)N(c3ccc(C#N)c(C(F)(F)F)c3)C(=O)C2(C)C)cc1F | inactive
CN1CCC(CNc2ccc3ncc(-c4cccc(OC(F)(F)F)c4)n3n2)CC1 | 5.25 µM (active)
O=C(NOCC(O)CO)c1ccc(F)c(F)c1Nc1ccc(I)cc1F (centres undefined) | 0.934 µM (active)
CC(C)CNc1ccnc(NCc2csc(-c3ccccc3)n2)n1 | 16.6 µM (active)
c1cc(-c2cnn3cc(-c4ccc(N5CCNCC5)cc4)cnc23)c2cccnc2c1 | 7.42 µM (active)
O=c1oc2c(C3OCCCO3)c(O)ccc2c2c1CNCC2 | inactive
CCNC(=O)Nc1ccc(-c2nc3c(c(N4CCOC[C@@H]4C)n2)CCN(C2COC2)C3)cc1 | 1.32 µM (active)

input: Which value of AC50 has been reported for "COc1cc2c(cc1OC)CC(=O)N(CCCN(C)C[C@H]1Cc3cc(OC)c(OC)cc31)CC2" in the records?
output: inactive

input: Which value of AC50 has been reported for "CCCCOC(=O)NS(=O)(=O)c1sc(CC(C)C)cc1-c1ccc(Cn2ccnc2)cc1" in the records?
output: 20.9 µM (active)

input: Which value of AC50 has been reported for "CCn1c(=O)c(-c2ccc(Cl)cc2Cl)cc2cnc(Nc3ccc(N4CCNCC4)c(F)c3)nc21" in the records?
output: 0.59 µM (active)

input: Which value of AC50 has been reported for O=C(NCC(=O)N1CC[C@H](NC2CCC(O)(c3ccc(-c4ncccn4)cn3)CC2)C1)c1cccc(C(F)(F)F)c1 (some centres undefined) in the records?
output: inactive

input: Which value of AC50 has been reported for "CC(C)OC(=O)C1=CN(C(=O)c2ccc(F)c(F)c2)CC(C)(C)c2c1[nH]c1ccccc21" in the records?
output: inactive

###

Documented inhibition across a set of compounds
- TEST_SUMMARY: growth inhibition, single agents and combos, UWB1.289, cell-based, BGB or cisplatin combos, synergistic combos for chromothripsis tumors (AID 1671456);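 note: cells exposed to compound for four days; 0% = vehicle DMSO and 100% = killing by high DMSO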
- ASSAY_CONDITIONS: UWB1.289 ovarian carcinoma cells, measured here: inhibition with cisplatin combination, at 0.05 µM, stronger effect = higher value
The reply should contain only the number, in %.

Before answering, review these 10 worked examples.
COMPOUND | U | inhibition
COc1ccc(-n2c(SCCCN3C(=O)c4cccc5cccc(c45)C3=O)nnc2-c2ccncc2)cc1 | % | -4.19
Nc1ncnc2c1c(-c1cnc3[nH]ccc3c1)nn2C1CCCC1 | % | -7.06
O=c1[nH]c([C@@H]2CCCN2)nc2c1oc1ccc(Cl)cc12 | % | -25.4
O=c1cc(N2CCOCC2)oc2c1ccc1ccccc12 | % | -7.12
CO[C@H]1/C=C/O[C@@]2(C)Oc3c(C)c(O)c4c(O)c(c(/C=N\N5CCN(C6CCCC6)CC5)c(O)c4c3C2=O)NC(=O)/C(C)=C\C=C\[C@H](C)[C@H](O)[C@@H](C)[C@@H](O)[C@@H](C)[C@H](OC(C)=O)[C@@H]1C | % | -11.8
N=C1CCCN1Cc1[nH]c(=O)[nH]c(=O)c1Cl | % | -2.8
O=c1cc(N2CCOCC2)oc2c(-c3cccc4c3sc3ccccc34)cccc12 | % | -24.1
CN(C)C/C=C/C(=O)Nc1ccc(C(=O)Nc2cccc(Nc3ncc(Cl)c(-c4c[nH]c5ccccc45)n3)c2)cc1 | % | 0.164
COc1ccc(C(=O)C2CCN(CC(=O)N(Cc3nc4c(c(=O)[nH]3)COCC4)CC3CC3)CC2)cc1 | % | -13.7
Nc1nc2n[nH]nc2c(=O)[nH]1 | % | 7.62

input: Which value of inhibition has been reported for "C=C1[C@H](CO)[C@@H](O)C[C@@H]1n1cnc2c(=O)[nH]c(N)nc21" in the records?
output: -3.75

input: Which value of inhibition has been reported for "O=C(O)[C@H](Cc1c[nH]c2ccccc12)N1C(=O)c2ccccc2C1=O" in the records?
output: -43.5

input: Which value of inhibition has been reported for "O=C(/C=C/c1ccc(CN(CCO)CCc2c[nH]c3ccccc23)cc1)NO" in the records?
output: 34.8

input: Which value of inhibition has been reported for "O=C(CCCCCCNC(=O)c1cnc(N(c2ccccc2)c2ccccc2Cl)nc1)NO" in the records?
output: -17.7

input: Which value of inhibition has been reported for "COc1cc2ncnc(-n3nc(-c4ccccn4)nc3N)c2cc1OC" in the records?
output: -13.1

input: Which value of inhibition has been reported for "CC(=O)Nc1ccc(C(=O)Nc2ccccc2N)cc1" in the records?
output: -6.67

###

- TEST_SUMMARY: viability loss in pontine glioma line – cell-based, SU-DIPG-IV, MIPE4.0, CellTiter-Glo, qHTS, dose response (AID 1347063);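 note: compound exposure lasted 48 hours before the viability readout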
- ASSAY_CONDITIONS: CellTiter-Glo ATP luminescence
Results filed as inconclusive are left out. Active and inactive are the calls of the source. Cut-off not given; nearly all actives show AC50 up to about 30 µM.
Pick one: Y = active, N = inactive

Here's what some known entries look like.
RECORD_SMILES | ASSIGNED_LABEL
C[C@H]1[C@H](O)O[C@@H]2O[C@@]3(C)CC[C@H]4[C@H](C)CC[C@@H]1[C@@]24OO3 | Y
COc1cc(Nc2ncc(F)c(Nc3ccc4c(n3)N(COP(=O)(O)O)C(=O)C(C)(C)O4)n2)cc(OC)c1OC | Y
CCn1c(=O)c2c(nc(/C=C/c3ccc(OC)c(OC)c3)n2C)n(CC)c1=O | N

input: For "CC(=O)Nc1cccc(-n2c(=O)n(C3CC3)c(=O)c3c(Nc4ccc(I)cc4F)n(C)c(=O)c(C)c32)c1" , which call appears in the assay record?
output: Y

input: For "CCC(=C/[C@H](C)C/C=C/C(C)=C/[C@@H](C)C(=O)[C@@H](C)[C@H](O)[C@@H](C)C/C(C)=C/C(=O)O)/C=C/[C@@H]1OC(=O)C=C[C@@H]1C" , which call appears in the assay record?
output: Y

input: For "COc1cc(F)c(C(C)C)cc1-c1ccc(C(F)(F)F)cc1CN1C(=O)O[C@H](c2cc(C(F)(F)F)cc(C(F)(F)F)c2)[C@@H]1C" , which call appears in the assay record?
output: N

input: For "CC(C)C[C@H](NC(=O)c1cc2ccccc2s1)C(=O)N1CCN(C(=O)[C@H](CO)NS(=O)(=O)c2ccc(Cl)cc2Cl)CC1" , which call appears in the assay record?
output: Y

###

- TEST_SUMMARY: growth inhibition of DIPG cells – cell-based, MIPE4.0 library, CellTiter-Glo luminescence, qHTS (AID 1347066);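 note: cells exposed to compound for 48 hours before readout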
- ASSAY_CONDITIONS: SU-DIPG-VI viability, CellTiter-Glo ATP luminescence
Records with an inconclusive call do not appear. Calls of active or inactive are those of the source. The limit is not given here; nearly all actives have AC50 up to about 30 µM.
Pick one: active, inactive

Here's what some known entries look like.
COMPOUND | ASSIGNED_LABEL
C[C@@H](Oc1cc(-n2cnc3ccc(CN4CCN(C)CC4)cc32)sc1C(N)=O)c1ccccc1C(F)(F)F | active
CCNC(=O)Nc1ccc(Oc2ncnc(N)c2/C=N/OC)cc1Cl | inactive

input: For CN(C)c1ccc(C2Nc3ccc4ccccc4c3C3=C2C(=O)CC(C)(C)C3)cc1Br (centres undefined) , which call appears in the assay record?
output: inactive

input: For "C/C=C(/C)C(=O)O[C@H]1C(C)=C[C@]23C(=O)[C@@H](C=C(CO)[C@@H](O)[C@]12O)[C@H]1[C@@H](C[C@H]3C)C1(C)C" , which call appears in the assay record?
output: active

The measured values listed here are drawn from PubChem BioAssay.
